Kindly supply the reported melting point values for the records listed here.

# input Please look up its melting point: c1ccc(-c2nnn[nH]2)c(-c2ccc(CNc3ccnc4ccnn34)cc2)c1
# output 150 to 155 °C

# input Try this molecule too: CC(O)c1c[nH]c(-c2ccccc2)n1 (configuration not stated)
# output 197 to 198 °C

# input Try this molecule too: O=C(Nc1ccc2[nH]c(=O)[nH]c2c1)C(=O)N1CCC(Oc2ccc(Cl)cc2)CC1
# output 286 to 288 °C

# input Try this molecule too: COc1ccc([C@@H]2Sc3ccccc3N(CCN(C)C)C(=O)[C@@H]2O)cc1 (relative stereo)
# output 88 to 90 °C

# input Try this molecule too: Cc1cc(-c2cc(C(F)(F)F)n3ncc(-c4ccnc(CO)c4)c3n2)ccc1Cl
# output 220 °C

# input Try this molecule too: Nc1ccc(S(=O)(=O)Nc2nc(-c3cccc([N+](=O)[O-])c3)cs2)cc1
# output 191 to 193 °C

# input Try this molecule too: COc1ccc(-c2cccc(OCc3ccccc3)c2)cc1
# output 78.5 to 81 °C

# input Try this molecule too: CCOC(=O)C1=C(COCCN=[N+]=[N-])NC(C)=C(C(=O)OC)C1c1ccccc1Cl (configuration not stated)
# output 145 to 146 °C

# input Try this molecule too: NC(C=C(CCCCO)CP(=O)(O)O)C(=O)O (configuration not stated)
# output 152 to 155 °C

# input Try this molecule too: O=C(COc1ccc(CN2CCCC2)cc1)Nc1ccc(Br)cc1
# output 143 to 145 °C

# input Try this molecule too: COC(=O)NC=Cc1ccc(OCC(O)CNC(C)CC#N)cc1 (configuration not stated)
# output 122 to 123 °C

# input Try this molecule too: CC(O)c1cc2c(s1)C(=O)c1sccc1C2=O (configuration not stated)
# output 170 to 172 °C

# input Try this molecule too: C=C(COc1ccc(C(=O)CCC(=O)O)cc1)COc1ccc(C(C)=O)c(O)c1CCC
# output 136 to 137 °C

# input Try this molecule too: CCCC(C)COc1cc(CCl)c(OC)cc1CCl (configuration not stated)
# output 78 to 80 °C

# input Try this molecule too: Cc1ccc2cccc(OCc3cc(N(C)C(=O)CN)ccc3Cl)c2n1
# output 82 to 87 °C

# input Try this molecule too: N#Cc1ccc2c(c1)CS(=O)(=O)NN=C2c1ccc(F)cc1
# output 218 to 219 °C

# input Try this molecule too: CCOCCc1c(-c2ccc(OC)cc2)nc(N)n2ncnc12
# output 176 to 177 °C

# input Try this molecule too: CC(C)[C@H]1C(C(F)(F)F)OC(=O)N1Cc1ccccc1 (some centres not stated)
# output 92 to 93 °C

# input Try this molecule too: O=C(O)C(=O)c1c(F)cc(OCCOc2ccc3ccccc3c2)cc1F
# output 157 to 158 °C

# input Try this molecule too: CC=C1CCC2C3CCC4CC(O)CCC4(C)C3C(N(C)C)CC12C (configuration not stated)
# output 59 to 61 °C

# input Try this molecule too: c1ccc(P(Cc2ccccc2-c2ccccc2CP(c2ccccc2)c2ccccc2)c2ccccc2)cc1
# output 84 to 87 °C

# input Try this molecule too: COC(=O)C(NC(=O)c1cc2cc(Cl)ccc2[nH]1)C(C)c1ccccc1 (configuration not stated)
# output 135 to 136 °C

# input Try this molecule too: Cc1oc(-c2ccccc2)nc1COc1ccccc1CCCC1SC(=O)NC1=O (configuration not stated)
# output 173 to 174 °C

# input Try this molecule too: C[C@@H](NC(=O)c1ccc(-c2ccc(C#N)cc2)s1)[C@](O)(Cn1cncn1)c1ccc(F)cc1F
# output 210 to 211 °C

# input Try this molecule too: Cc1ccc2c(C(=O)NCCc3ccccc3)c(Cl)ccc2n1
# output 170 to 172 °C

# input Try this molecule too: O=c1cc(CCCCBr)c2ccccc2[nH]1
# output 156 to 158 °C

# input Try this molecule too: CN1CCN(c2cc3c(Cl)cccc3c(=O)[nH]2)CC1CO (configuration not stated)
# output 212 to 214 °C

# input Try this molecule too: Nc1c(S(=O)(=O)c2ccc(O)cc2)c2nccnc2n2ccnc12
# output > 300 °C

# input Try this molecule too: Cc1c(OCCCCCCC(=O)N(CCO)C2CCCCC2)ccc2c1CN1CC(=O)NC1=N2
# output 148 to 150 °C

# input Try this molecule too: OCC(O)CNCC(O)C(O)C(O)C(O)CO (configuration not stated)
# output 133 to 134 °C

# input Try this molecule too: OCCCc1cc(-c2ccc(C(F)(F)F)cc2)no1
# output 59 to 60 °C

# input Try this molecule too: Cc1cccc(-c2ccccc2)c1C(=O)c1sc(Nc2ccc(N3CCOCC3)cc2)nc1N
# output 125 to 135 °C

# input Try this molecule too: CCNc1nc(-c2ccc(F)cc2C)c2ccc(=O)n(-c3c(F)cccc3F)c2n1
# output 195 to 196 °C

# input Try this molecule too: CC(=O)Oc1c(C(C)C)cc(NC(=O)Nc2cnc3c(C)cc(C)cc3c2-c2ccccc2Cl)cc1C(C)C
# output 248 to 249 °C

# input Try this molecule too: O=C1c2ccccc2C(=O)N1C/C=C/COc1ccc(-n2ccnc2)cc1
# output 170 to 171 °C

# input Try this molecule too: COc1cc(OC)c2c(=O)[nH]c(-c3cc(-c4ccc(S(C)=O)cc4)cs3)nc2c1 (configuration not stated)
# output > 300 °C

# input Try this molecule too: CC(C)(C)OC(=O)[C@@H]1CCCN1C[C@@H](O)[C@H](Cc1ccc(F)cc1)NC(=O)[C@H](CC(N)=O)NC(=O)OCc1ccccc1
# output 163 to 164 °C

----------
Kindly supply the reported melting point values for the records listed here.

# input Please look up its melting point: COc1cccc(NC(=O)c2cccs2)c1
# output 139 to 145 °C

# input Try this compound too: CCc1cc(CCc2nc3ccccc3o2)c(=O)[nH]c1COCc1ccccc1
# output 140 to 142 °C

# input Try this compound too: COC(=O)c1cccc(-c2c(C)c(C(=O)c3ccc4nc(C)[nH]c(=O)c4c3)n3ccccc23)c1
# output 232 °C

# input Try this compound too: CCN(CC)Cc1nc(-c2ncn3c2[C@@H]2CCN2C(=O)c2ccccc2-3)no1
# output 209 to 211 °C

# input Try this compound too: C=C(C)Cc1cc2c(cc1O)CC(=O)N2CC
# output 118 to 120 °C

# input Try this compound too: CCCCCC(=O)c1c(C)n(C(C)=O)c(=O)n1C(C)=O
# output 71 to 72 °C

# input Try this compound too: CCCn1nc2c(N)nc3ccccc3c2c1CCCCC(=N)NO
# output 222 to 224 °C

# input Try this compound too: c1ccc(OCCSCc2nnc(-c3ccc(OCCCCN4CCCC4)cc3)o2)cc1
# output 45 °C

# input Try this compound too: Cc1cc(C(O)(C(F)(F)F)C(F)(F)F)cc(C)c1NCCCN
# output 130 to 133 °C

# input Try this compound too: CC(=O)NCc1ccc(CN2CCN(c3nccc(N(C)C)n3)CC2)cc1
# output 152 to 155 °C

# input Try this compound too: CCCCc1oc2ccccc2c1C(=O)Nc1ccc2cc(OCc3nn[nH]n3)ccc2c1
# output 194 to 198 °C

# input Try this compound too: COc1ccc2[nH]c(SCc3cc(N)c(Br)cn3)nc2c1
# output 183 to 184 °C

# input Try this compound too: Cn1c(=O)c2conc2n(C)c1=O
# output 170 to 171 °C

----------
MEASURED_ATTRIBUTE: melting point

# input Please look up its melting point: N#CCc1cccc2c(C3CCCC3)nccc12
# output 99.4 to 100 °C

# input Try this compound too: C=CCN1C2CCC3C1CCC2N3C(c1ccc(C(=O)N2CCCC2)cc1)c1cccc(O)c1 (configuration not stated)
# output 140 to 142 °C

# input Try this compound too: Cc1cc2cc(CN3CCC(CCCC(N)=O)CC3)cnc2cc1NC(=O)c1ccc(-c2ccc(F)cc2)cc1
# output 228 °C

# input Try this compound too: CC(C)(C)C(NC(=O)c1cccc(I)c1)Nc1c(Nc2cccnc2)c(=O)c1=O (configuration not stated)
# output 234 to 236 °C

# input Try this compound too: Cc1ncc([N+](=O)[O-])n1CCN(CCCCCCCCN(CCn1c([N+](=O)[O-])cnc1C)CCn1c([N+](=O)[O-])cnc1C)CCn1c([N+](=O)[O-])cnc1C
# output 157 to 158 °C

# input Try this compound too: C[C@@H](O)CNC1=NS(=O)(=O)c2sc(Cl)cc2N1
# output 210 to 211 °C

# input Try this compound too: Cc1oc(-c2ccccc2)nc1CCOc1ccc(CCCO)cc1
# output 99 to 100 °C

# input Try this compound too: O=CN1CCc2ccccc2CC1
# output 65 to 66 °C

# input Try this compound too: CC(=O)NCC1CN(c2ccc(N3CCC(n4ccnn4)C(F)C3)c(F)c2)C(=O)O1 (configuration not stated)
# output 158 to 160 °C

# input Try this compound too: O=c1[nH]cnc2sc(Br)cc12
# output 304 °C

# input Try this compound too: CC(Oc1ccccc1[N+](=O)[O-])c1nnc(N)s1 (configuration not stated)
# output 137 to 142 °C

# input Try this compound too: NC(=O)CC12CCCCC1CCc1ccccc12 (configuration not stated)
# output 177 °C

# input Try this compound too: O=C1OCCC1=Cc1ccccc1OCC1CO1 (configuration not stated)
# output 68 to 70 °C

# input Try this compound too: Cc1nc(-c2cccc(F)c2)n(-c2ccc(S(N)(=O)=O)cn2)n1
# output 195 to 196 °C

# input Try this compound too: CC(C)(C)c1cc(C(C)(C)c2cc(C(C)(C)C)c(O)c(C(C)(C)C)c2)cc(C(C)(C)C)c1O
# output 148 to 154 °C

# input Try this compound too: COC(=O)Nc1ccc(CC(=O)Nc2cccc3c2C(=O)c2c-3n[nH]c2-c2ccc(OC)cc2)cc1
# output 257 °C

# input Try this compound too: CC(C)(C)OC(=O)CN1C(=O)[C@@H](NC(=O)OCc2ccccc2)[C@H]1CCc1ccco1
# output 82 to 84 °C

# input Try this compound too: CC(C)CN1C(=O)C(C)(C)C(=O)Nc2ccc(C=O)cc21
# output 208 to 211 °C

# input Try this compound too: Oc1ccc(-c2nc3cc(Cl)c(O)cc3o2)cc1
# output 254 to 256 °C

# input Try this compound too: Cc1oc(C=Cc2ccc(Cl)cc2)nc1C(=O)O
# output 244 to 245 °C

# input Try this compound too: CC(=O)NCC1(N2CCCCC2)CCCCC1
# output 104 °C

# input Try this compound too: COC(=O)c1ccc(-c2nnc(-c3ccccc3)o2)cc1
# output 172 to 173 °C

# input Try this compound too: CCC(COC)n1cnc2c(Nc3ccc(C(F)(F)F)cc3Br)nc(C)nc21 (configuration not stated)
# output 123 to 124 °C

# input Try this compound too: c1ccc(-c2nnc(-c3ccccc3)c3c2CCCCCC3)cc1
# output 163 to 165 °C

# input Try this compound too: CC1=C(C(=O)c2ccc(C(=O)O)cc2)C(=O)C2C=CC=CC2C1=O (configuration not stated)
# output 201 °C

# input Try this compound too: CCCCCCCNC(=O)N(C)c1ccc(C)c(-c2ccc(C=CC(=O)O)cc2)c1
# output 159 °C

# input Try this compound too: O=c1ccc(-c2c(-c3ccccc3)nn3ccccc23)nn1Cc1nccs1
# output 130 to 132 °C

The measured values listed here are drawn from a melting point compilation (Tetko et al.; mined from patent text by program, amines drawn as free bases though some values may be those of a salt).
